For each record, write down the corresponding TGI.
# Tested on: SNB-19 CNS
# assayDetails: NCI tumour cell line growth inhibition, 48 h

compound	TGI
COc1ccc(-c2nnc(COc3ccc(NC(=O)Nc4cc(C(F)(F)F)cc(C(F)(F)F)c4)cc3F)o2)cc1	15.7 µM
CC[C@H](Nc1ncnc2nc[nH]c12)c1oc2ccccc2c(=O)c1-c1cccc(F)c1	> 100 µM
CC(=O)[C@@]12O[C@@H]1CC1C3CCC4=CC(O)CCC4(C)C3CCC12C (some centres undefined)	> 100 µM
Nc1ncnc2n[nH]c(Nc3ccc(F)cc3)c12	> 100 µM
COP(=O)(/C=C/c1cc(C(=O)OCc2ccccc2)n(S(=O)(=O)c2ccccc2)c1)OC	> 100 µM
COc1cccc2c1OC1(C=C2)Oc2ccccc2C(=O)N1C (centres undefined)	> 100 µM
Cn1cnc([N+](=O)[O-])c1S(=O)(=O)Oc1cccc2ccccc12	> 100 µM
N#Cc1c(-c2ccccc2)/c(=C\Nc2ccc(F)cc2)c(=O)n2c1nc1ccccc12	> 100 µM
CN(C)C1(N(C)C)Oc2c(c(=O)n(C)c(=O)n2C)C(c2ccc(Br)cc2)C1(F)F (centres undefined)	> 100 µM
Cc1cc2c(cc1Cl)SC(N(N(C)C)S(=O)(=O)c1ccc(Cl)cc1)=NS2(=O)=O	> 100 µM

Items follow; give TGI for each.
1. N=Nc1c(OC(=O)Nc2cccc(Cl)c2)[nH]c2ccccc12
2. O=C(/C=C/c1ccncc1)c1cc(Cl)ccc1O
3. COC1=CC(=O)C(C2CC(=O)c3c(O)cc(O)cc3O2)=CC1=O (centres undefined)
4. CCN(CCCN(CC)C(=O)Nc1c(C)cccc1C)C(=O)Nc1c(C)cccc1C
5. CC(C)(C)OC(=O)N[C@H]1CC2(C=C(Cl)C(=O)C(Cl)=C2)OC1=O
6. C=C1C(=O)O[C@H]2[C@H]1CC/C(COC(=O)c1c[nH]c3ccccc13)=C\CC[C@@]1(C)O[C@@H]21
7. COc1cc(/C=C/C(=O)CC(=O)/C=C/c2ccc(OC(=O)CCCCC3CCSS3)c(OC)c2)ccc1OC(=O)CCCCC1CCSS1 (centres undefined)
8. CC(C)=Cc1cc(C(=O)Nc2ccc(Cl)c(Cl)c2)nc(N)n1

18.5 µM
40.2 µM
68.2 µM
> 100 µM
> 100 µM
2.91 µM
> 100 µM
> 100 µM

Items follow; give TGI for each.
1. Fc1cc2[nH]ncc2c2c3c(c(-c4cn[nH]c4)nc12)CCCC3
2. CCOC(=O)c1c(C)nc2c3ccccc3c(C#N)c(C)n12
3. OCC#Cc1ccccc1C#Cc1ccccc1
4. Cc1ccc2c(c1)C(=O)C1(Cc3ccccc3C1=O)C2 (centres undefined)
5. COC(OC)C(C)CC(=O)N(C)C (centres undefined)
6. C/C(=N\NC(=S)NC(CCC(=O)O)C(=O)O)c1ccccn1 (centres undefined)

["17.1 µM", "> 100 µM", "38.7 µM", "> 100 µM", "> 100 µM", "> 100 µM"]

Items follow; give TGI for each.
1. O=c1c2sc(=S)n(-c3ccc(F)cc3)c2ncn1/N=C/c1ccc(F)cc1F
2. CN(C)c1ccc(C(=N/N=C2\C(=O)Nc3ccccc32)c2ccc(N(C)C)cc2)cc1
3. OCCc1ccsc1-c1sc(-c2cc(CCO)c(-c3sccc3CCO)s2)cc1CCO
4. COc1cc2c3c(n(C)c(=O)c2cc1OC)-c1cc2c(cc1/C3=C\CCCN)OCO2

1: 62.6 µM; 2: > 100 µM; 3: 36.5 µM; 4: > 100 µM

Items follow; give TGI for each.
1. Cc1ccccc1S(=O)(=O)OC1NS(=O)(=O)c2ccccc21 (centres undefined)
2. CC1CCC(C(=O)O)(C(Br)C(=O)O)CC1 (centres undefined)
3. CC(=O)OC1COC(n2ccc3cc(Br)c([N+](=O)[O-])cc32)C(OC(C)=O)C1OC(C)=O (centres undefined)
4. O=S(=O)(CCn1c(Sc2ccccc2)c(Sc2ccccc2)c2ccccc21)c1ccccc1

1: > 100 µM; 2: > 100 µM; 3: > 100 µM; 4: > 100 µM

Items follow; give TGI for each.
1. O=C(/C=C/c1ccc2c(c1)OCO2)CC(=O)C(=O)c1c[nH]c2ccccc12
2. COc1ccc(/C=C(/C#N)n2nnc3cccc(F)c32)cc1

["> 100 µM", "82.1 µM"]
